assay_details: melting temperature; fluorescence melt of hairpins on a sequencing array, two-state fit, raised by 9.35 °C to match UV melts
conditions_used: sodium 0.088 M
value_kind: Tm (°C)

[[record]]
residue_sequence = "CGGCCCGGAAACGGCCG (((.(((....))))))"
assay_value = 63.7

[[record]]
residue_sequence = "GCCATGCGAAAGCAATGC ((..(((....)))..))"
assay_value = 41.3

[[record]]
residue_sequence = "GATCGGCCATCCGATC ((((((....))))))"
assay_value = 55.5

[[record]]
residue_sequence = "GAACCAGGAAACTGGTCC (.(((((....))))).)"
assay_value = 39.5

[[record]]
residue_sequence = "GCAATGCGAAAGCCGTGC (((..((....))..)))"
assay_value = 35.4

[[record]]
residue_sequence = "GCTTCCGAAAGGAAAAGC ((((((....)))..)))"
assay_value = 49.7


----------
assay_details: folding enthalpy; higher = less favourable; fluorescence melt of hairpins on a sequencing array, two-state fit
conditions_used: sodium 0.088 M
value_kind: folding enthalpy (kcal/mol)

[[record]]
residue_sequence = "GACACAGGAAACTGCGTC (((.(((....))).)))"
unit_info = "kcal/mol"
assay_value = -23.4

[[record]]
residue_sequence = "GCTTGCGAAAGCACAGC ((((((....))).)))"
unit_info = "kcal/mol"
assay_value = -20.1

[[record]]
residue_sequence = "GTCAGCGAAAGCTGCGAC ((((((....)))..)))"
unit_info = "kcal/mol"
assay_value = -11.8

[[record]]
residue_sequence = "GCTGCGGGAAACCGTAGC (((.(((....))).)))"
unit_info = "kcal/mol"
assay_value = -49.1

[[record]]
residue_sequence = "GGAGTCGAAAGACAGTCC ((((((....)))..)))"
unit_info = "kcal/mol"
assay_value = -14.3

[[record]]
residue_sequence = "GAAAGTGGAAACACTCTC ((.((((....)))).))"
unit_info = "kcal/mol"
assay_value = -19.4

[[record]]
residue_sequence = "GACTCCGAAAGGACAGTC ((((((....)))..)))"
unit_info = "kcal/mol"
assay_value = -19.2

[[record]]
residue_sequence = "CGATTGAAAAATCG (((((....)))))"
unit_info = "kcal/mol"
assay_value = -27.8

[[record]]
residue_sequence = "CACCTGAAAAGGTG (((((....)))))"
unit_info = "kcal/mol"
assay_value = -23.8

[[record]]
residue_sequence = "GATCATTCAAATGATC ((((((....))))))"
unit_info = "kcal/mol"
assay_value = -34

[[record]]
residue_sequence = "GAACCGGGAAACCGGTCC (.(((((....))))).)"
unit_info = "kcal/mol"
assay_value = -11.6

[[record]]
residue_sequence = "GATCGATAAATCGATC ((((((....))))))"
unit_info = "kcal/mol"
assay_value = -39.9


----------
assay_details: folding enthalpy; higher = less favourable; fluorescence melt of hairpins on a sequencing array, two-state fit
conditions_used: sodium 0.088 M
value_kind: folding enthalpy (kcal/mol)

[[record]]
residue_sequence = "GACTTTGGAAACAAAGTC (((((((....)))))))"
value_kind = "folding enthalpy"
assay_value = -44.5

[[record]]
residue_sequence = "GGGAAACGAAAGTTCCC (((.(((....))))))"
value_kind = "folding enthalpy"
assay_value = -28

[[record]]
residue_sequence = "GTGGTTGGAAACAACTGC (..((((....))))..)"
value_kind = "folding enthalpy"
assay_value = -17.6

[[record]]
residue_sequence = "GATCTGGACGCAGATC ((((((....))))))"
value_kind = "folding enthalpy"
assay_value = -47

[[record]]
residue_sequence = "GTTTGTGGAAACACAAGC (.(((((....))))).)"
value_kind = "folding enthalpy"
assay_value = -23.1

[[record]]
residue_sequence = "GGTAGCGAAAGCTTGACC ((((((....)))..)))"
value_kind = "folding enthalpy"
assay_value = -13.9


----------
assay_details: folding enthalpy; higher = less favourable; fluorescence melt of hairpins on a sequencing array, two-state fit
conditions_used: sodium 0.088 M
Below, each entry is listed with its recorded folding enthalpy.
value_kind: folding enthalpy

[[record]]
residue_sequence = "GATCGTACGACGATC ((((((...))))))"
value_kind = "folding enthalpy"
assay_value = "-37.2 kcal/mol"

[[record]]
residue_sequence = "GCGTGGGACGC ((((...))))"
value_kind = "folding enthalpy"
assay_value = "-16.9 kcal/mol"

[[record]]
residue_sequence = "GAGTGCGGAAACGTACTC ((((.((....)).))))"
value_kind = "folding enthalpy"
assay_value = "-43.3 kcal/mol"

[[record]]
residue_sequence = "GATCGCGAAAGCGATATC ((((((....)))..)))"
value_kind = "folding enthalpy"
assay_value = "-11.8 kcal/mol"

[[record]]
residue_sequence = "GCCATGGGAAACTGTGGC ((((..(....)..))))"
value_kind = "folding enthalpy"
assay_value = "-28.2 kcal/mol"

[[record]]
residue_sequence = "GGTGTTCGAAAGAATACC (((.(((....))).)))"
value_kind = "folding enthalpy"
assay_value = "-45.6 kcal/mol"

[[record]]
residue_sequence = "GCCCCACGAAAGTGCGGC (((.(((....))).)))"
value_kind = "folding enthalpy"
assay_value = "-29.6 kcal/mol"

[[record]]
residue_sequence = "GGCACAGGAAACTGCGCC (((.(((....))).)))"
value_kind = "folding enthalpy"
assay_value = "-50.8 kcal/mol"

[[record]]
residue_sequence = "GATCGTGTAGACGATC ((((((....))))))"
value_kind = "folding enthalpy"
assay_value = "-39.8 kcal/mol"

[[record]]
residue_sequence = "CGACCGGAAACGGATTCG ((((((....)))..)))"
value_kind = "folding enthalpy"
assay_value = "-16.2 kcal/mol"

[[record]]
residue_sequence = "GGTCTTGGAAACGAGACC (((((.(....).)))))"
value_kind = "folding enthalpy"
assay_value = "-37.6 kcal/mol"

[[record]]
residue_sequence = "GCCACCGAAAGGTGTGGC ((((((....)))..)))"
value_kind = "folding enthalpy"
assay_value = "-17.5 kcal/mol"

[[record]]
residue_sequence = "GATCTAATAATAGATC ((((((....))))))"
value_kind = "folding enthalpy"
assay_value = "-22 kcal/mol"

[[record]]
residue_sequence = "GGTTCTACGAAAGTAACC (((..(((....))))))"
value_kind = "folding enthalpy"
assay_value = "-19.6 kcal/mol"

[[record]]
residue_sequence = "GTCATGCGAAAGCAGGAC (((.(((....))).)))"
value_kind = "folding enthalpy"
assay_value = "-32.2 kcal/mol"

[[record]]
residue_sequence = "GCACGCGAAAGCGCTTGC ((((((....)))..)))"
value_kind = "folding enthalpy"
assay_value = "-13.3 kcal/mol"

[[record]]
residue_sequence = "GACTCTGGAAACAGAGTC (((((((....)))))))"
value_kind = "folding enthalpy"
assay_value = "-34.3 kcal/mol"

[[record]]
residue_sequence = "GGCTACGAAAGTACGGCC ((((((....)))..)))"
value_kind = "folding enthalpy"
assay_value = "-23.9 kcal/mol"

[[record]]
residue_sequence = "GCTTTGCGAAAGCAACGC ((.((((....)))).))"
value_kind = "folding enthalpy"
assay_value = "-20.8 kcal/mol"

[[record]]
residue_sequence = "GTCGATTCGAAAGAAGAC (((..(((....))))))"
value_kind = "folding enthalpy"
assay_value = "-13 kcal/mol"

[[record]]
residue_sequence = "GACAATGGAAACGTTGTC (((((.(....).)))))"
value_kind = "folding enthalpy"
assay_value = "-34.7 kcal/mol"

[[record]]
residue_sequence = "GGTGCTGGAAACGGCACC (((((.(....).)))))"
value_kind = "folding enthalpy"
assay_value = "-45.8 kcal/mol"

[[record]]
residue_sequence = "GGTACCGAAAGGTTACC ((((((....))).)))"
value_kind = "folding enthalpy"
assay_value = "-26.4 kcal/mol"

[[record]]
residue_sequence = "GTTCCAGAAATGGAAC ((((((....))))))"
value_kind = "folding enthalpy"
assay_value = "-32.2 kcal/mol"

[[record]]
residue_sequence = "GAGAGGACGAAAGTCCTC (((..(((....))))))"
value_kind = "folding enthalpy"
assay_value = "-8.73 kcal/mol"


----------
assay_details: melting temperature; fluorescence melt of hairpins on a sequencing array, two-state fit, raised by 9.35 °C to match UV melts
conditions_used: sodium 0.088 M
Where Tm equals or exceeds 50 °C, the correct label is class 1; where it does not, the label is class 0.

[[record]]
residue_sequence = "GAAATAGGAAACTATTTC (((((((....)))))))"
cat = "class 0"

[[record]]
residue_sequence = "GATGAAGGAAACTTCATC (((((((....)))))))"
cat = "class 1"

[[record]]
residue_sequence = "GATCATAAAGATGATC ((((((....))))))"
cat = "class 0"

[[record]]
residue_sequence = "GTCCGCGGAAACGTGGAC ((((.((....)).))))"
cat = "class 1"

[[record]]
residue_sequence = "GTATGTGCGAAAGCATAC (((..(((....))))))"
cat = "class 0"

[[record]]
residue_sequence = "GACCCCGCGAAAGCGGTC (((..(((....))))))"
cat = "class 0"

[[record]]
residue_sequence = "GCTTGCGGAAACGCGAGC (((.(((....))).)))"
cat = "class 1"

[[record]]
residue_sequence = "GCGTAGCGAAAGCCCCGC (((..((....))..)))"
cat = "class 0"

[[record]]
residue_sequence = "GGTAACGAAAGTTCACC ((((((....))).)))"
cat = "class 0"

[[record]]
residue_sequence = "GATCTTGGTAAAGATC ((((((....))))))"
cat = "class 1"

[[record]]
residue_sequence = "GTAATAACGAAAGTTTAC (((..(((....))))))"
cat = "class 0"

[[record]]
residue_sequence = "CGCGGATAGTCCGCG ((((((...))))))"
cat = "class 1"

[[record]]
residue_sequence = "GCTCGGGGAAACCTGAGC ((((.((....)).))))"
cat = "class 1"

[[record]]
residue_sequence = "GGAACTCGAAAGAGCTCC (((.(((....))).)))"
cat = "class 0"

[[record]]
residue_sequence = "GCTATGCGAAAGCGCAGC (((..((....))..)))"
cat = "class 0"

[[record]]
residue_sequence = "GCTAATGGAAACGTTAGC (((((.(....).)))))"
cat = "class 0"

[[record]]
residue_sequence = "GATGGTGGAAACGTCATC ((((..(....)..))))"
cat = "class 0"

[[record]]
residue_sequence = "GCGTTGCACGC ((((...))))"
cat = "class 1"

[[record]]
residue_sequence = "GCTTGGCCGAAAGGCAGC (((..(((....))))))"
cat = "class 0"

[[record]]
residue_sequence = "GATCAGGTACTGATC ((((((...))))))"
cat = "class 1"

[[record]]
residue_sequence = "GGCTGGAAACAGCC (((((....)))))"
cat = "class 1"

[[record]]
residue_sequence = "GAGTACGAAAGTACTC ((((((....))))))"
cat = "class 1"

[[record]]
residue_sequence = "GCCTGCGAAAGCAGAGGC ((((((....)))..)))"
cat = "class 1"

